System: LYMPHOCYTES
Assay Summary: Disease to normal ratio of enzyme activity, lymphocytes (Table 5)
Format: cell-based, human
Run Parameters: Lupus
Numbered stars: 1 amine (or outer) side, 2 acyl side, 3 side chain; on linkers, the order of the positions; unused ones are H or OH. Bridge positions count the residues as written; N and C are the ends. Peptide text beside a SMILES is read from it. I, II: the chains in the order shown. Rhodamine110 = O=C1OC2(c3ccc(N[*:1])cc3Oc3cc(N[*:2])ccc32)c2ccccc21
Readout Kind: Ratio of disease to normal
Answer with a number only.

Compound	Readout Kind	Reported
C[C@H](NC(=O)CNC(=O)[C@H](Cc1ccccc1)NC(=O)CN)C(=O)Nc1ccc2c(c1)Oc1cc(NC(=O)[C@H](C)NC(=O)CNC(=O)[C@H](Cc3ccccc3)NC(=O)CN)ccc1C21OC(=O)c2ccccc21 [GFGA, (Gly-Phe-Gly-Ala)2 Rho 110] (I: H-GFGA / II: H-GFGA; linker I:C-II:C via Rhodamine110)	Ratio of disease to normal	1.25
CC(=O)Oc1ccc2c(c1)Oc1cc(OC(C)=O)ccc1C21OC(=O)c2ccccc21 [FDA-NAF, reference compound]	Ratio of disease to normal	0.74

Any idea what Ratio of disease to normal was measured for C[C@H](NC(=O)[C@@H](N)CCCCN)C(=O)Nc1ccc2c(c1)Oc1cc(NC(=O)[C@H](C)NC(=O)[C@@H](N)CCCCN)ccc1C21OC(=O)c2ccccc21 [KA-M, (Lys-Ala)2 Rho 110] ?
1.06

And what about the compound C[C@H](NC(=O)[C@@H](N)CCCCN)C(=O)Nc1ccc2c(c1)Oc1cc(NC(=O)[C@H](C)NC(=O)[C@@H](N)CCCCN)ccc1C21OC(=O)c2ccccc21 [KA, (Lys-Ala)2 Rho 110] ?
1.93

Taken from patent US5871946A.
